tested on: D. discoideum GFP-ABD; details: 10 µM
propertyLabel: D. discoideum GFP-ABD normalised growth, control=1.00, mean
Provide a numeric answer; units are not to be included.

{"compound": "Cc1n[nH]c(C)c1S(=O)(=O)NCc1nc(NCCCc2ccccc2)c2ccccc2n1 [GSK2059310A]", "observedValue": 0.84}
{"compound": "CNc1nc(SCC(=O)N(C)Cc2ccc(Cl)s2)nc2ccccc12 [GSK1925843A]", "observedValue": 1.10}
{"compound": "Cc1ccc2nc(C(F)(F)F)c(C(=O)NCc3cccs3)n2c1 [GSK1829729A]", "observedValue": 0.86}
{"compound": "CCc1ccc(S(=O)(=O)Nc2cc(CN3CCN(CCC(C)C)CC3)ccc2C)cc1.O=C(O)C(F)(F)F.O=C(O)C(F)(F)F", "observedValue": 0.88}
{"compound": "N=C(Nc1nc(-c2ccccn2)cc2ccccc12)c1cccc(Cl)c1 [GSK381407A]", "observedValue": 0.98}

Exercise: For the compound Nc1nc(N)c2c(Sc3ccc4ccccc4c3)cccc2n1 [GW369335X] , give its measured D. discoideum GFP-ABD normalised growth, control=1.00, mean value.
Key: 0.97

###

Below, each entry is listed alongside its reported A. castellanii / M. marinum normalised growth, control=1.00, mean.
system: M. marinum in A. castellanii; type: cell-based, Mycobacterium marinum; details: 10 µM
# output: bare number, no unit

{"compound": "Cc1nc2ccccn2c1C(=O)NCc1ccccc1 [GSK957094A]", "observedValue": 0.54}
{"compound": "Nc1ccccc1Nc1ccc2c(c1)OCO2", "observedValue": 1.04}

Exercise: Look up and report A. castellanii / M. marinum normalised growth, control=1.00, mean, with M. marinum in A. castellanii as system, for COc1ccc2sc(Nc3nc(-c4ccccn4)cs3)nc2c1 [GSK690382A]
Key: 1.07

Exercise: # return A. castellanii / M. marinum normalised growth, control=1.00, mean of CSc1ccc(-c2nnc(NC(=O)c3ccc(Cl)s3)o2)cc1 [GSK1650514A] (system: M. marinum in A. castellanii)
Key: 1.31

Exercise: Look up M. marinum in A. castellanii data: A. castellanii / M. marinum normalised growth, control=1.00, mean of Cc1ccc2nc(C)c(C(=O)NCc3ccco3)n2c1 [GSK1829819A] , then report it.
Key: 0.66

Exercise: Enter measured A. castellanii / M. marinum normalised growth, control=1.00, mean, system M. marinum in A. castellanii, for the compound shown: CNc1nc(SCC(=O)N(C)Cc2ccc(Cl)s2)nc2ccccc12 [GSK1925843A]
Key: 1.12

Exercise: Specify A. castellanii / M. marinum normalised growth, control=1.00, mean for COc1ccc(CCNc2cc(-c3ccccc3)nc3ncnn23)cc1 [GSK888636A] , system M. marinum in A. castellanii.
Key: 1.02

Exercise: Report value only: A. castellanii / M. marinum normalised growth, control=1.00, mean, M. marinum in A. castellanii, Cc1ccc2nc(C(F)(F)F)c(C(=O)NCc3cc(Cl)cc(Cl)c3)n2c1 [GSK1829736A]
Key: 0.60

Exercise: Give A. castellanii / M. marinum normalised growth, control=1.00, mean for O=C(NC(Cc1ccccc1)C(=O)Nc1ccccc1N1CCOCC1)c1cccs1 (stereo not shown) [GSK1055950A] tested on M. marinum in A. castellanii.
Key: 0.24

Exercise: Please tell me the measured A. castellanii / M. marinum normalised growth, control=1.00, mean for FC(F)(F)c1nnc2ccc(Cl)nn12 [GSK352635A] ; system: M. marinum in A. castellanii.
Key: 1.02

###

system: M. marinum in BV2 microglial cells; type: cell-based, Mycobacterium marinum
propertyLabel: IC50 (µM)
Number only, in µM; omit the unit.

Worked set:
{"molecule": "N=C(Nc1nc(-c2ccccn2)cc2ccccc12)c1cccc(Cl)c1 [GSK381407A]", "valueUnit": "µM", "observedValue": 7.71}
{"molecule": "c1csc(Cc2nn3c(-c4[nH]nc5c4CCC5)nnc3s2)c1 [GSK810037A]", "valueUnit": "µM", "observedValue": 4.8}
{"molecule": "Cc1nc2ccccn2c1C(=O)NCc1cccs1 [GSK892651A]", "valueUnit": "µM", "observedValue": 4.41}
{"molecule": "Cc1ccc2nc(C(F)(F)F)c(C(=O)NCc3cccc(OC(C)C)c3)n2c1 [GSK1829733A]", "valueUnit": "µM", "observedValue": 3.35}

Kindly review the next molecule as well.
Exercise: Please indicate IC50 recorded for Cc1nc2ccccn2c1C(=O)NCc1ccc2c(c1)OCO2 [GSK498315A]
Key: 5.95

###

system: D. discoideum GFP-ABD
Lab note: compare Growth inhibition / Cytotoxicity assays: D. discoideum GFP-ABD against 0.9. Equal or greater, write Fulfilled. Smaller, write Not fulfilled.

{"compound": "COc1cc(Cc2cnc(N)nc2N)c2cnccc2c1N(C)C [GW360240X]", "classAssignment": "Fulfilled"}
{"compound": "c1ccc(Cc2nnc(Sc3ccnc(N4CCN(c5ccncc5)CC4)n3)n2CCN2CCOCC2)cc1 [GSK547511A]", "classAssignment": "Fulfilled"}
{"compound": "FC(F)(F)c1cc(SCc2ccccc2)nc(-c2ccccn2)n1 [GSK847913A]", "classAssignment": "Fulfilled"}
{"compound": "CCC(Sc1nc2ccccc2o1)C(=O)Nc1nccs1 (centres unmarked) [GSK829969A]", "classAssignment": "Fulfilled"}
{"compound": "CCOc1ccc(OCc2ccc(C(=O)NNC(=O)c3ccc([N+](=O)[O-])o3)cc2)cc1 [GSK426032A]", "classAssignment": "Fulfilled"}
{"compound": "Fc1ccccc1-c1noc(N2CCN(Cc3ccc4c(c3)OCO4)CC2)n1 [GSK1434490A]", "classAssignment": "Fulfilled"}
{"compound": "Cc1nn(Cc2ccccc2)c(Cl)c1C(=O)NC1CCCCCC1 [GSK636544A]", "classAssignment": "Fulfilled"}
{"compound": "O=C(c1[nH]nc2c1CCCC2)N1CCN(Cc2ccc3c(c2)OCO3)CC1", "classAssignment": "Not fulfilled"}

Exercise: Check this compound for Growth inhibition / Cytotoxicity assays: D. discoideum GFP-ABD at or above 0.9: COc1ccc2nc(C)cc(OCC(=O)Nc3ccccc3OC)c2c1 [GSK358607A]
Key: Not fulfilled

Exercise: Is Growth inhibition / Cytotoxicity assays: D. discoideum GFP-ABD at least 0.9? Consider CCc1ccc(C2CC(C(F)(F)F)n3ncc(C(=O)NCc4ccc(OC)cc4)c3N2)cc1 (centres unmarked) [GSK1589673A]
Key: Fulfilled

Exercise: For this compound, is measured Growth inhibition / Cytotoxicity assays: D. discoideum GFP-ABD 0.9 or higher? N=C(N)c1ccc(CCN2CCC(c3nc(COCC(F)(F)F)c(-c4ccc(F)cc4)o3)CC2)cc1.O=C(O)C(F)(F)F.O=C(O)C(F)(F)F [GI247341A]
Key: Not fulfilled

Exercise: Check the entry CN1CCN(c2cc(-c3ccc(F)cc3)nc(-c3ccncc3)n2)CC1 [GSK276001A] : does Growth inhibition / Cytotoxicity assays: D. discoideum GFP-ABD equal or exceed 0.9?
Key: Not fulfilled

Exercise: Does Growth inhibition / Cytotoxicity assays: D. discoideum GFP-ABD meet or surpass 0.9 for Cc1cccc(-c2nc(Nc3ccncn3)c3c(C)csc3n2)n1 [GSK163574A] ?
Key: Not fulfilled

Exercise: Decide: is the reported value of Growth inhibition / Cytotoxicity assays: D. discoideum GFP-ABD for O=C(N[C@@H](Cc1ccccc1)C(=O)Nc1ccccc1N1CCOCC1)c1cccs1 [GSK1729177A] equal to or greater than 0.9?
Key: Fulfilled

Exercise: In plain terms: is recorded Growth inhibition / Cytotoxicity assays: D. discoideum GFP-ABD at least 0.9 for Cc1ccc(C2CC(C(F)(F)F)n3ncc(C(=O)NCc4ccc5c(c4)OCO5)c3N2)cc1 (centres unmarked) [GSK937733A] ?
Key: Fulfilled

Exercise: For this compound, is measured Growth inhibition / Cytotoxicity assays: D. discoideum GFP-ABD 0.9 or higher? O=C(C=Cc1ccccc1)N1CCN(Cc2ccc3c(c2)OCO3)CC1
Key: Fulfilled

Exercise: Evaluate O=C(Nc1nnc(-c2ccc(Cl)cc2)o1)c1cccc(C(F)(F)F)c1 [GSK130506A] : Growth inhibition / Cytotoxicity assays: D. discoideum GFP-ABD at minimum 0.9?
Key: Fulfilled

Exercise: Is reported Growth inhibition / Cytotoxicity assays: D. discoideum GFP-ABD greater than or equal to 0.9 here: Cc1cccc(-c2nc(Nc3ccncn3)c3sccc3n2)n1 [GSK153890A]
Key: Fulfilled

Exercise: Threshold query (Growth inhibition / Cytotoxicity assays: D. discoideum GFP-ABD >= 0.9) on COc1ccc2nc(C)cc(OCC(=O)NCc3ccccc3)c2c1 [GSK463114A]
Key: Fulfilled

Exercise: Assess whether reported Growth inhibition / Cytotoxicity assays: D. discoideum GFP-ABD for CCc1c(C)nc(-n2nc(C)cc2NC(=O)c2ccccc2SC)[nH]c1=O [GSK1783710A] sits at 0.9 or higher.
Key: Fulfilled
